- Assay system: recombinant human LTA4 hydrolase (rhLTA4H) (Homo sapiens, UniProt P09960)
- Construct: made in house; host or cells: Spodoptera frugiperda (Sf-9) cells, baculovirus (pFastBac1)
- Sequence (P09960 whole entry): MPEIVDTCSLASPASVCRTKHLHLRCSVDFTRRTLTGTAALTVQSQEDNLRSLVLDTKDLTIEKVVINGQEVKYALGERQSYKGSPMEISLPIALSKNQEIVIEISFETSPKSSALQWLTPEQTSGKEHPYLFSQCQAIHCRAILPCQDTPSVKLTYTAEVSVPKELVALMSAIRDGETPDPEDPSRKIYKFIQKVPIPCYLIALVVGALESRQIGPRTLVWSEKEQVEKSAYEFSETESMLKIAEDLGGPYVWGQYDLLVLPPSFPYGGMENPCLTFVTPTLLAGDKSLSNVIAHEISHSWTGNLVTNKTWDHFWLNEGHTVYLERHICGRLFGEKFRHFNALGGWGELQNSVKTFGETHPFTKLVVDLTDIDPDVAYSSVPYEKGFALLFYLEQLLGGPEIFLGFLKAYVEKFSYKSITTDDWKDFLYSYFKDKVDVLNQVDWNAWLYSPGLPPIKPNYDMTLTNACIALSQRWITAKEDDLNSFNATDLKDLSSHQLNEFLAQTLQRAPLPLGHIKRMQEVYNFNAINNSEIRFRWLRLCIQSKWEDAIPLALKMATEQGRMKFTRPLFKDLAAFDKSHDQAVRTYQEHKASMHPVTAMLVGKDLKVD
- Protocol notes: Recombinant human LTA4 hydrolase assay for LTA4 hydrolase inhibitor activity
- Format: biochemical
- Details: rhLTA4H, LTB4 by immunoassay; single determination or average of two or more; mark after value = form tested: ′ free base, ″ hydrochloride, ^ formate; read-out: IC50
Known pIC50 of a selection of molecules
Please express pIC50 as -log10 of the molar concentration.

Check out these entries, answers already filled in.
Molecule: CS(=O)(=O)C1CCN(Cc2c[nH]c3cc(Oc4nc5ccccc5s4)ccc23)CC1 [Example 4]
Quantitative result: 7.64
//
Molecule: CC(=O)N1C[C@@H]2C[C@H]1CN2C(=O)c1coc2cc(Oc3nc4ncccc4s3)ccc12 [Example 371]
Quantitative result: 7.60
//
Molecule: c1cnc2nc(Oc3ccc4c(CN5CCCCC5)c[nH]c4c3)sc2c1 [Example 16]
Quantitative result: 8.52

Can you look up the measured pIC50 of O=C(c1coc2cc(Oc3nc4ncccc4s3)ccc12)N1CCc2ccccc2C1 [Example 386] for me?
6.68
